Target: alpha-glucosidase enzyme from Saccharomyces cerevisiae recombinant
Experiment: In vitro alpha-glucosidase inhibition assay
Settings: read-out: IC50 ± S.D. alpha-glucosidase; mean ± SD, n = 3
observed property: log10 IC50 (log10 of the value in µM)
// units: µM (pre-log); metric: IC50; scale: log10

>>> reported("COc1cc(O)c2c(c1)CCc1cc(O)ccc1-2")
1.81
>>> reported("COc1cc2c(c(O)c1OC)-c1ccc(O)cc1CC2")
1.80
>>> reported("Oc1ccc2c(c1)CCc1cc(O)cc(O)c1-2")
2.63
>>> reported("COc1cc(O)cc(CCc2ccc(O)c(OC)c2)c1")
2.36

[Q] If you can, please state the reported log10 IC50 value of `COc1cc(CCc2cc(OC)c(O)c(OC)c2)ccc1O` .
[A] 2.24

[Q] Again, but for `COc1cc(O)cc2ccc3cccc(O)c3c12`
[A] 1.51
